test_method_notes: Approximate solubility in solvents at 25° C. and 50° C., visual observation
Assay type: physicochemical
assay_setup: 25 °C, organic solvent or mixture, thermodynamic from solid, Table 14, Acetone, 25° C., read-out: Solubility (mg/mL) 25° C.
endpoint_name: solubility

Complete the entry with solubility for CCOC(=O)[C@H](C)NP(=O)(COCCn1cnc2c(OC)nc(N)nc21)OCc1ccccc1.O=C(O)/C=C/C(=O)O (mixture of isomers) [Compound I monofumarate]
50 to 100 mg/mL

###

test_method_notes: Approximate solubility in solvents at 25° C. and 50° C., visual observation
Assay type: physicochemical
assay_setup: 50 °C, organic solvent or mixture, thermodynamic from solid, Table 14, EA, 50° C., read-out: Solubility (mg/mL) 50° C.
endpoint_name: solubility

Please report the measured solubility for CCOC(=O)[C@H](C)NP(=O)(COCCn1cnc2c(OC)nc(N)nc21)OCc1ccccc1.O=C(O)/C=C/C(=O)O (mixture of isomers) [Compound I monofumarate]
< 10 mg/mL

###

test_method_notes: Solubility in buffers, water and simulated vaginal fluid at 37° C.
assay_setup: citrate buffer, 37 °C, pH 3, aqueous buffer, thermodynamic from solid
endpoint_name: solubility at 2 h

Consider the compound CCOC(=O)[C@H](C)NP(=O)(COCCn1cnc2c(OC)nc(N)nc21)OCc1ccccc1 (stereo partly shown) [Compound I] and give its recorded solubility at 2 h.
> 2000 µg/mL

###

test_method_notes: Approximate solubility in solvents at 25° C. and 50° C., visual observation
Format: physicochemical
assay_setup: 50 °C, organic solvent or mixture, thermodynamic from solid, Table 14, THF, 50° C., read-out: Solubility (mg/mL) 50° C.
endpoint_name: solubility

Note solubility for the molecule shown: CCOC(=O)[C@H](C)NP(=O)(COCCn1cnc2c(OC)nc(N)nc21)OCc1ccccc1.O=C(O)/C=C/C(=O)O (mixture of isomers) [Compound I monofumarate]
250 to 500 mg/mL

###

test_method_notes: Solubility in buffers, water and simulated vaginal fluid at 37° C.
assay_setup: water, 37 °C, thermodynamic from solid
endpoint_name: solubility at 0.5 h

Specify reported solubility at 0.5 h for the compound shown: CCOC(=O)[C@H](C)NP(=O)(COCCn1cnc2c(OC)nc(N)nc21)OCc1ccccc1 (stereo partly shown) [Compound I]
> 2000 µg/mL

###

test_method_notes: Approximate solubility in solvents at 25° C. and 50° C., visual observation
Format: physicochemical
assay_setup: 50 °C, organic solvent or mixture, thermodynamic from solid, Table 14, IPAc, 50° C., read-out: Solubility (mg/mL) 50° C.
endpoint_name: solubility

Please supply the value of reported solubility for the item CCOC(=O)[C@H](C)NP(=O)(COCCn1cnc2c(OC)nc(N)nc21)OCc1ccccc1.O=C(O)/C=C/C(=O)O (mixture of isomers) [Compound I monofumarate]
< 10 mg/mL

###

test_method_notes: Solubility in buffers, water and simulated vaginal fluid at 37° C.
assay_setup: simulated vaginal fluid, 37 °C, pH 4.2, fassgf or other biorelevant, thermodynamic from solid
endpoint_name: solubility at 2 h

Report solubility at 2 h for CCOC(=O)[C@H](C)NP(=O)(COCCn1cnc2c(OC)nc(N)nc21)OCc1ccccc1 (stereo partly shown) [Compound I]
> 2000 µg/mL

###

test_method_notes: Approximate solubility in solvents at 25° C. and 50° C., visual observation
Format: physicochemical
assay_setup: 25 °C, organic solvent or mixture, thermodynamic from solid, Table 14, Toluene, 25° C., read-out: Solubility (mg/mL) 25° C.
Protocol: The maximum volume of each solvent added was 1 mL. Approximate solubility was determined by visual observation. Maximum volume of each solvent added was 1 mL. Approximate solubility was determined by visual observation.
endpoint_name: solubility

Tell me solubility reported for CCOC(=O)[C@H](C)NP(=O)(COCCn1cnc2c(OC)nc(N)nc21)OCc1ccccc1.O=C(O)/C=C/C(=O)O (mixture of isomers) [Compound I monofumarate]
< 2 mg/mL

###

test_method_notes: Solubility in buffers, water and simulated vaginal fluid at 37° C.
assay_setup: 37 °C, water, thermodynamic from solid
endpoint_name: solubility at 0.5 h

CCOC(=O)[C@H](C)N[P@@](=O)(COCCn1cnc2c(OC)nc(N)nc21)OCc1ccccc1.O=C(O)/C=C/C(=O)O [Compound II] = > 2000 µg/mL

Provide only the value of recorded solubility at 0.5 h for CCOC(=O)[C@H](C)NP(=O)(COCCn1cnc2c(OC)nc(N)nc21)OCc1ccccc1.O=C(O)/C=C/C(=O)O (mixture of isomers) [Compound I monofumarate]
> 2000 µg/mL

###

test_method_notes: Solubility in buffers, water and simulated vaginal fluid at 37° C.
assay_setup: water, 37 °C, thermodynamic from solid
endpoint_name: solubility at 2 h

Specify solubility at 2 h for CCOC(=O)[C@H](C)NP(=O)(COCCn1cnc2c(OC)nc(N)nc21)OCc1ccccc1 (stereo partly shown) [Compound I] and stop.
> 2000 µg/mL

###

test_method_notes: physchem
assay_setup: 37 °C, pH 4.2, fassgf or other biorelevant, thermodynamic from solid
endpoint_name: solubility

Give recorded solubility. CCOC(=O)[C@H](C)N[P@](=O)(COCCn1cnc2c(OC)nc(N)nc21)OCc1ccccc1 (single isomer, unassigned) [Compound III, monofumarate]
> 2000 µg/mL

###

test_method_notes: Approximate solubility in solvents at 25° C. and 50° C., visual observation
Type: physicochemical
assay_setup: 25 °C, organic solvent or mixture, thermodynamic from solid, Table 14, EA, 25° C., read-out: Solubility (mg/mL) 25° C.
endpoint_name: solubility

Retrieve solubility measured for CCOC(=O)[C@H](C)NP(=O)(COCCn1cnc2c(OC)nc(N)nc21)OCc1ccccc1.O=C(O)/C=C/C(=O)O (mixture of isomers) [Compound I monofumarate] and print it.
< 2 mg/mL

###

test_method_notes: Approximate solubility in solvents at 25° C. and 50° C., visual observation
Format: physicochemical
assay_setup: 50 °C, water, thermodynamic from solid, Table 14, Water, 50° C., read-out: Solubility (mg/mL) 50° C.
endpoint_name: solubility

Supply measured solubility of CCOC(=O)[C@H](C)NP(=O)(COCCn1cnc2c(OC)nc(N)nc21)OCc1ccccc1.O=C(O)/C=C/C(=O)O (mixture of isomers) [Compound I monofumarate] in your reply.
22 to 25 mg/mL

###

test_method_notes: Approximate solubility in solvents at 25° C. and 50° C., visual observation
Assay type: physicochemical
assay_setup: 50 °C, organic solvent or mixture, thermodynamic from solid, Table 14, MTBE, 50° C., read-out: Solubility (mg/mL) 50° C.
endpoint_name: solubility

Return the recorded solubility value; entry: CCOC(=O)[C@H](C)NP(=O)(COCCn1cnc2c(OC)nc(N)nc21)OCc1ccccc1.O=C(O)/C=C/C(=O)O (mixture of isomers) [Compound I monofumarate]
< 10 mg/mL

###

test_method_notes: Approximate solubility in solvents at 25° C. and 50° C., visual observation
Type: physicochemical
assay_setup: 50 °C, organic solvent or mixture, thermodynamic from solid, Table 14, EtOH, 50° C., read-out: Solubility (mg/mL) 50° C.
endpoint_name: solubility

Look up solubility of CCOC(=O)[C@H](C)NP(=O)(COCCn1cnc2c(OC)nc(N)nc21)OCc1ccccc1.O=C(O)/C=C/C(=O)O (mixture of isomers) [Compound I monofumarate] and report it.
250 to 500 mg/mL

###

test_method_notes: Approximate solubility in solvents at 25° C. and 50° C., visual observation
Type: physicochemical
assay_setup: 25 °C, organic solvent or mixture, thermodynamic from solid, Table 14, ACN, 25° C., read-out: Solubility (mg/mL) 25° C.
endpoint_name: solubility

Report measured solubility; entry is CCOC(=O)[C@H](C)NP(=O)(COCCn1cnc2c(OC)nc(N)nc21)OCc1ccccc1.O=C(O)/C=C/C(=O)O (mixture of isomers) [Compound I monofumarate]
20 to 25 mg/mL

###

test_method_notes: Solubility in buffers, water and simulated vaginal fluid at 37° C.
assay_setup: 37 °C, pH 4.2, fassgf or other biorelevant, thermodynamic from solid
endpoint_name: solubility at 2 h

CCOC(=O)[C@H](C)NP(=O)(COCCn1cnc2c(OC)nc(N)nc21)OCc1ccccc1.O=C(O)/C=C/C(=O)O (mixture of isomers) [Compound I monofumarate] = > 2000 µg/mL

// below: solubility at 2 h requested for another compound
Complete the entry with solubility at 2 h for CCOC(=O)[C@H](C)N[P@@](=O)(COCCn1cnc2c(OC)nc(N)nc21)OCc1ccccc1.O=C(O)/C=C/C(=O)O
> 2000 µg/mL

###

test_method_notes: Approximate solubility in solvents at 25° C. and 50° C., visual observation
Assay type: physicochemical
assay_setup: 25 °C, organic solvent or mixture, thermodynamic from solid, Table 14, MeOH, 25° C., read-out: Solubility (mg/mL) 25° C.
endpoint_name: solubility

In one line, give reported solubility of the entry CCOC(=O)[C@H](C)NP(=O)(COCCn1cnc2c(OC)nc(N)nc21)OCc1ccccc1.O=C(O)/C=C/C(=O)O (mixture of isomers) [Compound I monofumarate] .
> 100 mg/mL
